target: Integrin alpha-V/beta-3 (Homo sapiens, UniProt P05106+P06756); assay: Displacement of a non-peptide radioligand from human recombinant alphaV-beta3 integrin
Sequence (P05106 27-788 limits assumed): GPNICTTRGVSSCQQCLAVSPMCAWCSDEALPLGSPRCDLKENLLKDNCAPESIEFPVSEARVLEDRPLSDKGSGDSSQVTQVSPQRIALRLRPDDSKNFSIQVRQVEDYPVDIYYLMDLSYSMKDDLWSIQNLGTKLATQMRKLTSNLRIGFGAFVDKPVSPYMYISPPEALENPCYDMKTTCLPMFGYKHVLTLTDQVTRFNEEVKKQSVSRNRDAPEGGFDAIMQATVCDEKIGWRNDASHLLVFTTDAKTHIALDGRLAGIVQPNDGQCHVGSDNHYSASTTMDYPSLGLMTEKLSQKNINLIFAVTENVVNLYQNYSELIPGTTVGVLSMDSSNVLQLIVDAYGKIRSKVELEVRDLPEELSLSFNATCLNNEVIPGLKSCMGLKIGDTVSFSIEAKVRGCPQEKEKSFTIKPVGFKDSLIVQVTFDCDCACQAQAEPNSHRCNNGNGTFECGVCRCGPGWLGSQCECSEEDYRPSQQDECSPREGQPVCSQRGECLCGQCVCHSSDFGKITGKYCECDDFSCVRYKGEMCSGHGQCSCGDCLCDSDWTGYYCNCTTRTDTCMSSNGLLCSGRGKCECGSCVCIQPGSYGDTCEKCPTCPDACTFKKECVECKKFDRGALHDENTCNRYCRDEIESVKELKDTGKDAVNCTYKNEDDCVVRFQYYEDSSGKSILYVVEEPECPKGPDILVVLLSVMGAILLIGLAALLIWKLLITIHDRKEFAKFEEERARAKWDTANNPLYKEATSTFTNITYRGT
Sequence (P06756 31-889 limits assumed): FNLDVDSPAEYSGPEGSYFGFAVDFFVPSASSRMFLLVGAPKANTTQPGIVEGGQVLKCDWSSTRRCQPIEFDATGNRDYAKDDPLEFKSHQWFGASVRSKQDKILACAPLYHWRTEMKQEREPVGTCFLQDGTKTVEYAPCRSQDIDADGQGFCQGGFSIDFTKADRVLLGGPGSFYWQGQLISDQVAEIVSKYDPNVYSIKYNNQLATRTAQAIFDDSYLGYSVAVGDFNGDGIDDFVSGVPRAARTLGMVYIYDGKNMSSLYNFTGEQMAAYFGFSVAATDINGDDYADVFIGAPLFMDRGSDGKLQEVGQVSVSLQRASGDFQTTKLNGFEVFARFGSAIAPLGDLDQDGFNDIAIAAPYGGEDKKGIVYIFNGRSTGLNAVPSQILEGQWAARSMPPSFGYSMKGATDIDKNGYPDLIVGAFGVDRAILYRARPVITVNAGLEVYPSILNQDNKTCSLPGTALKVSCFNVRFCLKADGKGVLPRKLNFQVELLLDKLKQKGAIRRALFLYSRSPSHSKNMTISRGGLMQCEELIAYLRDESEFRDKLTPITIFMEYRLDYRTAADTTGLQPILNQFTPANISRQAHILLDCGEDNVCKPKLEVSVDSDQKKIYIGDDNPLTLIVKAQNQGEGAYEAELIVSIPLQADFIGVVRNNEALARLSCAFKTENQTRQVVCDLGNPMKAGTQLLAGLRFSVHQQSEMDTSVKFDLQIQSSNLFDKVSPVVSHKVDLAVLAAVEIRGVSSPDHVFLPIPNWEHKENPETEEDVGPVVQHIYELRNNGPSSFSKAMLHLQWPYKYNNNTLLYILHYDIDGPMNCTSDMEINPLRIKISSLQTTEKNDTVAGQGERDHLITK
Sequence (P06756 891-1048 limits assumed): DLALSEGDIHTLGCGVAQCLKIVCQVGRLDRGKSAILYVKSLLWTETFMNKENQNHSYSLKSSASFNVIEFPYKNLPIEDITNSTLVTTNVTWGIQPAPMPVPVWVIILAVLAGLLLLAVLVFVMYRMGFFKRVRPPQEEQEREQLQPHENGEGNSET
quantity: IC50 (nM)

molecule=O=C(O)C[C@H](NC(=O)CN1CCN(CCc2ccc3c(n2)NCCC3)C1=O)c1cccnc1 readout_units=nM recorded_result=12

[1] O=C(O)C[C@H](NC(=O)CN1CCCC(CCc2ccc3c(n2)NCCC3)C1=O)c1cccnc1 (some centres undefined)
[2] C#C[C@H](CC(=O)O)NC(=O)CNC(=O)CCCc1ccc2c(n1)NCCC2
Field: lower IC50 | Options: 1 / 2 Pick one; state its label.
1
(1: 1.2 nM, 2: 8.8 nM)

[a] O=C(O)C[C@H](NC(=O)CNC(=O)CCCc1ccc2c(n1)NCCC2)c1cccnc1
[b] O=C(O)CCNC(=O)CNC(=O)CCCc1ccc2c(n1)NCCC2
Lab notebook, comparison: a versus b , higher IC50 goes to which? Pick one; state its label.
b

[a] O=C(O)C[C@H](NC(=O)CN1CC[C@@H](CCc2ccc3c(n2)NCCC3)C1=O)c1cccnc1
[b] C#C[C@H](CC(=O)O)NC(=O)CN1CC[C@H](CCc2ccc3c(n2)NCCC3)C1=O
Field: lower IC50 | Options: a / b Pick one; state its label.
a
